This collection of values is drawn from patent US20240287172A1.

- assayedSystem: T1, human iRhom2, endogenously expressed (human, UniProt Q6PJF5 1-856)
- T1 sequence: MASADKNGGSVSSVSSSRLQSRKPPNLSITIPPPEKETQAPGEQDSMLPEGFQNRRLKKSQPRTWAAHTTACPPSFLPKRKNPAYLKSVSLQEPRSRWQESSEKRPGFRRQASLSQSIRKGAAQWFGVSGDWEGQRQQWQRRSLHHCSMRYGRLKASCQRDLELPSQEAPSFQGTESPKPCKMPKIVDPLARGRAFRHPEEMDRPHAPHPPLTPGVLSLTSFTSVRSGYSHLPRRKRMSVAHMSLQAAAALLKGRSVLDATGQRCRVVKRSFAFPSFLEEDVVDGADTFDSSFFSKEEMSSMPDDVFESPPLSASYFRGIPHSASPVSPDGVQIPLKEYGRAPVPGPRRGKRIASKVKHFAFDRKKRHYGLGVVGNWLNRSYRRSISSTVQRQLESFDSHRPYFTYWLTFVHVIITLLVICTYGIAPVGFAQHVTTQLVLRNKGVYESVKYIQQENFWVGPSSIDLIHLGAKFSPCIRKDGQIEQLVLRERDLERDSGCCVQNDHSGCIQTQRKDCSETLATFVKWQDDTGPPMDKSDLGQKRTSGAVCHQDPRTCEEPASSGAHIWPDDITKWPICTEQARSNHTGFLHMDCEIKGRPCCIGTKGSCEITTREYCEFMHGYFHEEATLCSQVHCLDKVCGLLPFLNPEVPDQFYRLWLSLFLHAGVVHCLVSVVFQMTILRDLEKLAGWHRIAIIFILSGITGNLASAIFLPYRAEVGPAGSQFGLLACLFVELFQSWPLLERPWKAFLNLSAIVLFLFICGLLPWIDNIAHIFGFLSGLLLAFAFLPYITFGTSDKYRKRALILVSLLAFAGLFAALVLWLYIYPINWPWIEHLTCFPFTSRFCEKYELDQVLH
- experimentalProtocol: cell-based or functional assay
assayMetric: PMA-induced IL-6R release from U-937 cells, percent inhibition, 3 µg/ml (%)
Give bare numbers, in %.

chimeric antibody 44 (antibody, V domains shown) VH: QVTLKESGPGILQPSQTLSLTCSFSGFSLSTFGMGVGWIRQPSEKGLEWLAHIWWDDDKYYNPALKSRLTISKDTSKNQIFLKITNVDTAETATYYCSRIGNYGSNYWYFDVWGTGTTVTVSS VL: QIVLTQSPAVMSASPGEKVTMTCTASSSVYYMYWYQQTPGSSPRLLIYDTSNLASGVPVRFSGSGSGTSYSLTISRMEAEDAATYYCQQWNTYPLTFGAGTKLELK : 85.2

For every item in the list below, what is its measured PMA-induced IL-6R release from U-937 cells, percent inhibition, 3 µg/ml?
1. antibody 44 (antibody, V domains shown, mouse IgG, kappa light chain; also called clone #44; purified antibody 44) VH: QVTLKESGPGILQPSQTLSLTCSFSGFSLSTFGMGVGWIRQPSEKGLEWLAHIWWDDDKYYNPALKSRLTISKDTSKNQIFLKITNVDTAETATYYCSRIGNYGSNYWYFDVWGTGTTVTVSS VL: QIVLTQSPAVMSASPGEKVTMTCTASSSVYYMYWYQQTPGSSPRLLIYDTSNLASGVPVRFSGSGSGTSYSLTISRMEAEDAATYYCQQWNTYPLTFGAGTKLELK
2. antibody 22 (antibody, V domains shown, mouse IgG, kappa light chain; also called clone #22; purified antibody 22) VH: QVTLKESGPGILQPSQTLSLTCSFSGFSLSTFGMGVGWIRQPSGKGLEWLAHIWWDDEKYYNSALKSRLTISKATSKNQVFLKIANVDTADTATYYCARISNYGSNYWYFNVWGTGTTVTVSS VL: QVVLTQSPALMSASPGEKVTMTCSAGSSVSYMYWYQQKPGSSPRVLIYDTSNLASGVPARFTGSGSGTSYSLTISRMEAEDAATYYCQQWNSYPLTFGAGTKLELK

Solution:
[82, 79]
